The values you see were collected from ChEMBL document CHEMBL1141988.

study.system: Melanin-concentrating hormone receptor 1 (Homo sapiens, UniProt Q99705)
Sequence (Q99705 whole entry): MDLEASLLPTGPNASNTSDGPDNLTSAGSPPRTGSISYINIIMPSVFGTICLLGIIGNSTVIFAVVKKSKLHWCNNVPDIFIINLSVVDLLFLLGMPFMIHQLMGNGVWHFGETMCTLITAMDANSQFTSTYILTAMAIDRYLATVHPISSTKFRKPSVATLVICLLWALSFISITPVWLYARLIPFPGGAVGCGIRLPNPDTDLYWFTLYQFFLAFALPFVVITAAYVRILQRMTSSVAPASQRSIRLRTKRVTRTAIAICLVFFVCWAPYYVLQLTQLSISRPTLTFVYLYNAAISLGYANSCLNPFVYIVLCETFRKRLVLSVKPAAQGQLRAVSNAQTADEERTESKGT
assay: Displacement of [125I]MCH from human Melanin-concentrating hormone 1 (MCH1) receptor modified for optimal expression in HEK293 cells
assay.readout: pKi
Conceptually, pKi converts a concentration in mol/L into minus its log10.

See these solved cases before continuing.
CN(C(=O)c1ccc(-c2ccc(C(F)(F)F)cc2)cc1)C1CCN(C(=O)N(C)C2CCN(CCCc3ccc(Cl)cc3)C2)C1 (centres undefined) | 8.14
CN(C(=O)c1ccc(Oc2ccc(F)cc2)cc1)C1CCN(C(=O)N(C)C2CCN(CCCc3ccc(Cl)cc3)C2)C1 (centres undefined) | 8.28
CN(C(=O)c1ccc(-c2ccc(C(F)(F)F)cc2)cc1)C1CCN(C(=O)N(C)C2CCN(CCS(=O)(=O)N3CCCC3)C2)C1 (centres undefined) | 7.09

Give reported pKi value for CN(C)CC1CCc2cc(NC(=O)c3ccc(-c4ccc(F)cc4)cc3)ccc2C1 (centres undefined)
8.26

----------
Each record here notes measured pKi.
study.system: Melanin-concentrating hormone receptor 1 (Homo sapiens)
assay: Displacement of [125I]MCH from human Melanin-concentrating hormone 1 (MCH1) receptor modified for optimal expression in HEK293 cells
pKi (log units): -log10 of the concentration in mol/L.

In the examples that follow, each entry is paired with its recorded pKi.
CN(C(=O)c1ccc(-c2ccc(C(F)(F)F)cc2)cc1)C1CCN(C(=O)N(C)C2CCN(CCOc3ccc(Cl)cc3)C2)C1 (stereo not given) | 7.74
CN1CCC(N(C)C(=O)CCCN(C)C(=O)c2ccc(-c3ccccc3)cc2)C1 (stereo not given) | 6.85
CN(C(=O)c1ccc(-c2ccc(C(F)(F)F)cc2)cc1)C1CCN(C(=O)N(C)C2CCN(CCO)C2)C1 (stereo not given) | 7.02
CN(C(=O)c1ccc(-c2ccc(C(F)(F)F)cc2)cc1)C1CCN(C(=O)N(C)C2CCN(CCS(=O)(=O)c3ccc(Cl)cc3)C2)C1 (stereo not given) | 7.85

For CN(C(=O)CCCC(=O)c1ccc(Cl)cc1)C1CCN(C(=O)N(C)C2CCN(CCCc3ccccc3)C2)C1 (stereo not given) , write its pKi.
7.32
